# System: U251 CNS
# Assay info: NCI-60 one-dose screen, 48 h
# Condition info: 10 µM unless noted
About 83,000 compounds went through this panel and 20% of them were active in at least one assay; those are over-represented in the sample as a whole. The source made the active and inactive calls. How the source made its calls: active means growth percent below 10; inactive means the rest.
Outcome codes: yes = active, no = inactive

{"Compound": "CC1Cc2ccc(OCCN(C)C)cc2C1=O (stereo unspecified)", "Label": "no"}
{"Compound": "CCOC(=O)Nc1ccc2c(c1)/C(=N\\NC(=S)NC)c1ccccc1-2", "Label": "no"}
{"Compound": "COc1cc(C)cc2oc3oc(=O)c(C(=O)c4cc5cc(Br)ccc5o4)cc3c(=O)c12", "Label": "no"}
{"Compound": "COC(=O)c1c(C)[nH]c(/C=C2\\N=C(c3ccc[nH]3)C=C2OC)c1C", "Label": "yes"}
{"Compound": "C[C@H]1[C@H](C)CC[C@]2(C(=O)N3CCN(C)CC3)CC[C@]3(C)C(=CC[C@@H]4[C@@]5(C)C/C(=C/c6ccco6)C(=O)C(C)(C)[C@@H]5CC[C@]43C)[C@H]12", "Label": "no"}
{"Compound": "O=C1Nc2ccccc2/C1=C/C(=O)c1ccc(N2CCCC2)cc1", "Label": "yes"}
{"Compound": "N#Cc1c(N2CCOCC2)nc(=S)[nH]c1-c1ccco1", "Label": "no"}
{"Compound": "CN(C)c1cc(NN=C(c2ccc(O)cc2)c2ccc(O)cc2)c([N+](=O)[O-])cc1[N+](=O)[O-]", "Label": "no"}
{"Compound": "Clc1ccc(N2CCN(CCCN3CCN(c4cccc(Cl)c4)CC3)CC2)cc1", "Label": "no"}
{"Compound": "c1ccc(-c2nc(N3CCCNCC3)c3nc(-c4ccccc4)oc3n2)cc1", "Label": "yes"}
{"Compound": "O=C(CSc1nc2ccc([N+](=O)[O-])cc2[nH]1)Nc1ccc(F)c(Cl)c1", "Label": "no"}
{"Compound": "COc1ccc(/C=C/C=C\\C(=O)c2ccc(-n3ccnc3)cc2)cc1", "Label": "no"}
{"Compound": "CC1Cc2c(Cl)ncnc2N(C)c2ccc(Cl)cc21 (stereo unspecified)", "Label": "no"}
{"Compound": "N#Cc1c(Cl)nc(SCC2CO2)nc1-c1ccccc1 (stereo unspecified)", "Label": "no"}
{"Compound": "Cc1ccc(S(=O)(=O)n2cc(C(=O)C(=O)N3CCCCC3)c3ccccc32)cc1", "Label": "no"}
{"Compound": "CC(C)CCNCC(C)(C)O", "Label": "no"}
{"Compound": "Cc1ccc(Cn2c(O)c(N=NC(=O)c3ccc(S(N)(=O)=O)cc3)c3ccccc32)cc1", "Label": "no"}
{"Compound": "CCOc1ccc(S(=O)(=O)Nc2ccc3c(c2)N(S(=O)(=O)CC)CCC3)cc1", "Label": "no"}
{"Compound": "Cc1ccc(NC(=S)/N=c2/n(-c3ccccc3)nc3n2CCN3C2=NCCN2)cc1", "Label": "no"}
{"Compound": "COc1ccc(NC(=O)Nc2ccc(-c3cccnc3)cc2N2CCC(CO)CC2)cc1", "Label": "no"}
{"Compound": "COc1cc(OC)cc(C(=O)Nc2cc(-c3cccnc3)nc(NCCCN3CCOCC3)n2)c1", "Label": "no"}

---

# System: SK-MEL-5 melanoma
# Assay info: NCI-60 one-dose screen, 48 h
# Condition info: 10 µM unless noted
The panel holds about 83,000 compounds, 20% with a hit somewhere; the sample as a whole holds those more often. Activity calls are given as the source filed them. How the source made its calls: active means growth percent below 10; inactive means the rest.
Outcome codes: yes for active, no for inactive

{"Molecule": "COC(=O)[C@H](CC(C)C)NC(=O)NC(=O)NC(=O)CI", "Label": "no"}
{"Molecule": "CCN(CC)c1ccc2cc(NC(=O)OCCNC(=O)CCNC(=O)[C@H](CC(C)C)NC(=O)C(C)(C)NC(=O)C(C)(C)NC(=O)[C@H](CC(C)C)NC(=O)CCNC(=O)C(C)(C)NC(=O)[C@H](CC(C)C)NC(=O)CCNC(=O)[C@@](C)(CC)NC(=O)[C@H](C)NC(=O)CCNC(=O)C(C)(C)NC(=O)[C@H](C)NC(=O)[C@@H]3CCCN3C(=O)[C@@](C)(CC)NC(=O)[C@H](Cc3ccccc3)NC(=O)C3CCCN3C(=O)C(C)(C)NC(=O)C3CCCN3C(=O)C(C)(C)NC(C)=O)c(=O)oc2c1 (stereo partly drawn)", "Label": "yes"}
{"Molecule": "O=C(Nc1cc(F)cc2cccnc12)c1cnc(N2CCNCC2)cn1", "Label": "no"}

---

Quick reference: growth of the listed items.
# Tested on: SF-295 CNS
# Assay info: NCI-60 one-dose screen, 48 h (100 = growth as untreated, 0 = no growth, -100 = all killed)
# Condition info: 10 µM unless noted
About 83,000 compounds went through this panel and 20% of them were active in at least one assay; those are over-represented in the sample as a whole.
Metric name: growth (%)

{"Compound": "Nc1nc(Nc2ccccc2)c2ncn(Cc3cc4c(cc3Br)OCO4)c2n1", "Subject of test": "SF-295 CNS", "Test value": 14}
{"Compound": "CC(C)CCSc1nc(N)nc2nc[nH]c12", "Subject of test": "SF-295 CNS", "Test value": 132}
{"Compound": "COc1ccc2c(c1)C(C)Cc1c(Cl)nc(C)nc1N2C (stereo not given)", "Subject of test": "SF-295 CNS", "Test value": 7.77}
{"Compound": "C=CC1=C(C)C2=NC1=CC1=NC(=CC3=C(C)C4=C(O)C(C(=O)O)C(=C5NC(=C2)C(C)C5CCC(=O)O)C4=N3)C(CC)=C1C (stereo not given)", "Subject of test": "SF-295 CNS", "Test value": 116}
{"Compound": "COc1ccc(-c2ccc(NNC(=O)c3ccc(F)cc3)nn2)cc1OC", "Subject of test": "SF-295 CNS", "Test value": 84.7}
{"Compound": "O=c1[nH]c(CN2CCN(c3cccc(Cl)c3)CC2)nc2cc(Cl)ccc12", "Subject of test": "SF-295 CNS", "Test value": 100}
{"Compound": "O=[N+]([O-])c1ccc(O)c(-c2nc3ccccc3s2)c1", "Subject of test": "SF-295 CNS", "Test value": 53.9}
{"Compound": "C#C[C@]1(O)CC[C@H]2[C@@H]3CC=C4c5nc(N)sc5CC[C@]4(C)[C@H]3CC[C@@]21C", "Subject of test": "SF-295 CNS", "Test value": -43.6}
{"Compound": "COc1c(B(O)O)cccc1-c1nc2ccc3[nH]ncc3c2c2c1CCC2", "Subject of test": "SF-295 CNS", "Test value": 86.9}
{"Compound": "O=C(NNc1ccc(-c2ccccc2)nn1)c1ccc(F)cc1", "Subject of test": "SF-295 CNS", "Test value": 95.3}

---

# System: SK-MEL-5 melanoma
# Assay info: NCI-60 one-dose screen, 48 h (100 = growth as untreated, 0 = no growth, -100 = all killed)
# Condition info: 10 µM unless noted
About 83,000 compounds went through this panel and 20% of them were active in at least one assay; those are over-represented in the sample as a whole. The source made the active and inactive calls. The calls were made as follows: active = growth percent below 10; inactive = the rest.

{"Molecule": "C=CCc1nc2ccccc2s1", "growth": "114% (inactive)"}
{"Molecule": "O=C(Nc1ccc(C(=O)/C=C/c2ccc(N3CCOCC3)cc2)cc1)Nc1ccc([N+](=O)[O-])cc1", "growth": "95.1% (inactive)"}
{"Molecule": "C/C=C/C1OC23CCCCC2C(C#N)(C(=N)O3)C1(C#N)C#N (stereo unspecified)", "growth": "99.1% (inactive)"}
{"Molecule": "Cc1nc(-c2ccccc2)sc1CC#N", "growth": "107% (inactive)"}
{"Molecule": "CCCn1ccnc1C(O)c1ccc(OCc2ccccc2)c(OC)c1 (stereo unspecified)", "growth": "93.5% (inactive)"}
{"Molecule": "N/C(=N\\c1nc2ccccc2[nH]1)NC(=O)Cc1cccc2ccccc12", "growth": "82.2% (inactive)"}
{"Molecule": "CN(C)Cc1ccc[nH]1", "growth": "102% (inactive)"}
{"Molecule": "CCOC(=O)c1nn(C2CCCCO2)c2ccc(NS(=O)(=O)c3ccc(C)cc3)cc12 (stereo unspecified)", "growth": "98.7% (inactive)"}
{"Molecule": "COc1ccc(C=C2c3ccccc3-c3ccccc32)cc1", "growth": "60.3% (inactive)"}
{"Molecule": "CCCCCn1c(C)cc(/C=C\\c2ccc3cc(C)ccc3[n+]2C)c1C", "growth": "-95.7% (active)"}
{"Molecule": "CCCCOC(=O)c1cccc([N+](=O)[O-])c1", "growth": "110% (inactive)"}
{"Molecule": "CC(C)=CC/C=C(/C)[C@H]1CC[C@]2(C)[C@@H]1CC[C@@H]1[C@@]3(C)CC/C(=N/O)C(C)(C)[C@@H]3CC[C@]12C", "growth": "18.2% [100 µM] (inactive)"}
{"Molecule": "COc1c(B(O)O)cccc1-c1nc2ccc3[nH]ncc3c2c2c1CCC2", "growth": "52.4% (inactive)"}
{"Molecule": "CC1(C)CC[C@]2(C(=O)O)CC[C@]3(C)[C@H](CC[C@@H]4[C@@]5(C)CCC(=O)C(C)(C)[C@@H]5CC[C@]43C)[C@H]2[C@H]1OC(=O)C(F)(F)F", "growth": "-94.2% [100 µM] (active)"}
{"Molecule": "CC(=O)O.CC(=O)O.O.[Fe]", "growth": "107% (inactive)"}
{"Molecule": "N#Cc1c(N2CCOCC2)nc(=S)[nH]c1-c1ccco1", "growth": "62.6% (inactive)"}
{"Molecule": "CCn1cc(-c2ccnc(NCCNS(=O)(=O)c3cccc4ccccc34)c2)c(-c2cccc(O)c2)n1", "growth": "95.8% (inactive)"}
{"Molecule": "NNC(=O)c1ccc(C(=O)NN)cc1", "growth": "108% (inactive)"}
{"Molecule": "CC(C)=CC/C=C(/C)[C@H]1CC[C@]2(C)[C@@H]1CC[C@@H]1[C@@]3(C)CCC(=O)NC(C)(C)[C@@H]3CC[C@]12C", "growth": "-93.5% [100 µM] (active)"}
{"Molecule": "c1ccc2c(c1)CN(CCCN1CCOCC1)C2", "growth": "99.1% (inactive)"}
{"Molecule": "CC1(C)CC[C@]2(C(=O)O)CC[C@]3(C)C(=CC[C@@H]4[C@@]5(C)C/C(=C/c6cccnc6)[C@H](O)C(C)(C)[C@@H]5CC[C@]43C)[C@@H]2C1", "growth": "-77.1% [100 µM] (active)"}
